Provenance of the data: the array DNA melting data of Ke et al. (doi:10.1101/2024.01.08.574731)

- Procedure text: melting temperature; fluorescence melt of hairpins on a sequencing array, two-state fit, raised by 9.35 °C to match UV melts
- Details: sodium 0.088 M
Readout label: Tm (°C)
The reply should be a number in °C, with the unit left off.

I have this sequence here, GCGACAGGAAACCGTCGC (((((.(....).))))) , and I need its recorded Tm. 58.8

I have this sequence here, GGGAACGAAAGTTGCCC ((((((....))).))) , and I need its recorded Tm. 53

I have this sequence here, GGCAACGAAAGTTTCGCC ((((((....)))..))) , and I need its recorded Tm. 41.8

I have this sequence here, TACACGAAAGTGTA (((((....))))) , and I need its recorded Tm. 57.8

I have this sequence here, GGTTTGGGAAACCAAGCC ((.((((....)))).)) , and I need its recorded Tm. 49.9

I have this sequence here, GGGTACGGAAACGCACCC ((((.((....)).)))) , and I need its recorded Tm. 52.3

I have this sequence here, GCAGGGGGAAACCCTTGC (((.(((....))).))) , and I need its recorded Tm. 52.2

I have this sequence here, GTACCCGAAAGGGAATAC ((((((....)))..))) , and I need its recorded Tm. 29.7

I have this sequence here, GCTGCCTCGAAAGAGAGC (((..(((....)))))) , and I need its recorded Tm. 42.3

I have this sequence here, GCCGCGCGAAAGCTGGGC (((..((....))..))) , and I need its recorded Tm. 56.3

I have this sequence here, GTCAACGAAAGTTTCGAC ((((((....)))..))) , and I need its recorded Tm. 26.6

I have this sequence here, GGCGGTCGAAAGACGGCC (((.(((....))).))) , and I need its recorded Tm. 68.2

I have this sequence here, GATCTTCATGAAGATC ((((((....)))))) , and I need its recorded Tm. 51.1

I have this sequence here, GTGTCGGGAAACTGACAC (((((.(....).))))) , and I need its recorded Tm. 55

I have this sequence here, GATCGATTCTCGATC ((((((...)))))) , and I need its recorded Tm. 53.3

I have this sequence here, GTATTGCGAAAGCATAC (((.(((....)))))) , and I need its recorded Tm. 45

I have this sequence here, GCGGGTCCCGC ((((...)))) , and I need its recorded Tm. 56.4

I have this sequence here, GTTCACGGAAACATGAAC (((((.(....).))))) , and I need its recorded Tm. 36.6

I have this sequence here, GATTAAGGAAACTTAGTC ((.((((....)))).)) , and I need its recorded Tm. 28

I have this sequence here, GCACCACGAAAGTGTTGC (((.(((....))).))) , and I need its recorded Tm. 52.6

I have this sequence here, GCCTTTCGAAAGAAGGC (((.(((....)))))) , and I need its recorded Tm. 50.4

I have this sequence here, GCGACCGGAAACGGCCAC (.(.(((....))).).) , and I need its recorded Tm. 32.5

I have this sequence here, GGGGTTGGAAACAACTCC ((.((((....)))).)) , and I need its recorded Tm. 51.3

I have this sequence here, GCTTGAGGAAACTCAAAC (.(((((....))))).) , and I need its recorded Tm. 30.6

I have this sequence here, GCAGAGCGAAAGCACGGC ((.(.((....)).).)) , and I need its recorded Tm. 55.1

I have this sequence here, GCGGTGGGCCGC ((((....)))) , and I need its recorded Tm. 65.8

I have this sequence here, GATCCAGAATGGATC ((((((...)))))) , and I need its recorded Tm. 58.1

I have this sequence here, GTGGTTGGAAACAGCCAC ((((.((....)).)))) , and I need its recorded Tm. 52.4

I have this sequence here, GCGGTGCGAAAGCTCGGC ((.(.((....)).).)) , and I need its recorded Tm. 51

I have this sequence here, AATCGGAAACGATT (((((....))))) , and I need its recorded Tm. 44.5

I have this sequence here, GATCAGGGCTCTGATC ((((((....)))))) , and I need its recorded Tm. 55.1

I have this sequence here, GAGGTCGGAAACGACCCC (.(((((....))))).) , and I need its recorded Tm. 48.3

I have this sequence here, GACCGGGGAAACCCGGCC (.(((((....))))).) , and I need its recorded Tm. 50.4

I have this sequence here, GATCGTGTAACGATC ((((((...)))))) , and I need its recorded Tm. 63.5

I have this sequence here, GTGCGCGGAAACGCGTGC (..((((....))))..) , and I need its recorded Tm. 57

I have this sequence here, GCTCTGCGAAAGCGCAGC (((..((....))..))) , and I need its recorded Tm. 37.6

I have this sequence here, GTCGATGGAAACACCGAC ((((.((....)).)))) , and I need its recorded Tm. 47.2

I have this sequence here, GATCGCACGGGCGATC ((((((....)))))) , and I need its recorded Tm. 67.1

I have this sequence here, GGTCACGGAAACGTAACC (((.(((....))).))) , and I need its recorded Tm. 42.1

I have this sequence here, GGCTAACGAAAGTTCGCC (((.(((....))).))) , and I need its recorded Tm. 52.9

I have this sequence here, CGCGGACAAATCCGCG ((((((....)))))) , and I need its recorded Tm. 60.9

I have this sequence here, GGACTTGGAAACGAGTCC (((((.(....).))))) , and I need its recorded Tm. 52.4

I have this sequence here, GAGACGCGAAAGCGCTC (((.(((....)))))) , and I need its recorded Tm. 50

====

- Procedure text: folding enthalpy; higher = less favourable; fluorescence melt of hairpins on a sequencing array, two-state fit
- Details: sodium 0.088 M
Can you tell me folding enthalpy for the items I'm about to list?
The reply should be a number in kcal/mol, with the unit left off.

I have this sequence here, GCCTACGAAAGTATAGGC ((((((....)))..))) , and I need its recorded folding enthalpy. -25.5

I have this sequence here, GCACTTGCGAAAGCATGC (((..(((....)))))) , and I need its recorded folding enthalpy. -10.8

I have this sequence here, GTCGGTGGAAACACCAAC ((.((((....)))).)) , and I need its recorded folding enthalpy. -18.1

I have this sequence here, GCTCTTCGAAAGAATAGC (((.(((....))).))) , and I need its recorded folding enthalpy. -30.7

I have this sequence here, GGGATAGGAAACTGTCCC ((((.((....)).)))) , and I need its recorded folding enthalpy. -35.9

I have this sequence here, GGAACCGAAAGGTTTCC ((((((....))).))) , and I need its recorded folding enthalpy. -18.5

I have this sequence here, GACAGTGGAAACATTGTC ((((.((....)).)))) , and I need its recorded folding enthalpy. -32.4

I have this sequence here, GGACTTGGAAACAAGTCC (((((((....))))))) , and I need its recorded folding enthalpy. -51.1

I have this sequence here, GATCAGTGGCCTGATC ((((((....)))))) , and I need its recorded folding enthalpy. -36

I have this sequence here, GGTATCCGAAAGGACACC (((.(((....))).))) , and I need its recorded folding enthalpy. -25.2

I have this sequence here, GCGTATTCGAAAGAACGC (((..(((....)))))) , and I need its recorded folding enthalpy. -24.4

I have this sequence here, GTGACGGGAAACTGTCGC (.(((.(....).))).) , and I need its recorded folding enthalpy. -28.2

I have this sequence here, GTGTTTGCGAAAGCACAC (((..(((....)))))) , and I need its recorded folding enthalpy. -20.2

I have this sequence here, GCAAGCGAAAGCTGTTGC ((((((....)))..))) , and I need its recorded folding enthalpy. -15.7

I have this sequence here, GATCCTGGAGAGGATC ((((((....)))))) , and I need its recorded folding enthalpy. -34.7

I have this sequence here, GCACGCGAAAGCGTCTGC ((((((....)))..))) , and I need its recorded folding enthalpy. -11.1

I have this sequence here, GGGCAAGGAAACTTACCC (((.(((....))).))) , and I need its recorded folding enthalpy. -29.2

I have this sequence here, GGAGTGGGAAACCGCTCC ((((.((....)).)))) , and I need its recorded folding enthalpy. -44.3

====

- Procedure text: folding enthalpy; higher = less favourable; fluorescence melt of hairpins on a sequencing array, two-state fit
- Details: sodium 0.088 M
Readout label: folding enthalpy (kcal/mol)
The reply should be a number in kcal/mol, with the unit left off.

I have this sequence here, GTTCCGAAAGGAAC (((((....))))) , and I need its recorded folding enthalpy. -29.5

I have this sequence here, GATCAACGTTTTGATC ((((((....)))))) , and I need its recorded folding enthalpy. -30.4

I have this sequence here, GGACTGGAAACAGTCC ((((((....)))))) , and I need its recorded folding enthalpy. -30.2
